Entries with their measured MIC, system Enterobacter aerogenes:
Assay metric: MIC (µM)

[[record]]
compound = "OC(CNC1CCCCC1)Cn1c2ccc(Cl)cc2c2cc(Cl)ccc21 (stereo not shown)"
scale_unit = "µM"
value_comparator = ">"
value_observed = 200

[[record]]
compound = "CC(C)CCNCC(O)Cn1c2ccc(Cl)cc2c2cc(Cl)ccc21 (stereo not shown)"
scale_unit = "µM"
value_comparator = "="
value_observed = 50

[[record]]
compound = "OCC(CO)(CO)NCC(O)Cn1c2ccc(Cl)cc2c2cc(Cl)ccc21 (stereo not shown)"
scale_unit = "µM"
value_comparator = "="
value_observed = 200

[[record]]
compound = "CCC(CC)CNCC(O)Cn1c2ccc(Cl)cc2c2cc(Cl)ccc21 (stereo not shown)"
scale_unit = "µM"
value_comparator = ">"
value_observed = 200


###

- Test system: Salmonella typhimurium
The reader will find reported MIC values listed item by item below.
Assay metric: MIC (µM)

[[record]]
compound = "CC(C)CCNCC(O)Cn1c2ccc(Cl)cc2c2cc(Cl)ccc21 (stereo not shown)"
scale_unit = "µM"
value_comparator = "="
value_observed = 50

[[record]]
compound = "CCC(CC)CNCC(O)Cn1c2ccc(Cl)cc2c2cc(Cl)ccc21 (stereo not shown)"
scale_unit = "µM"
value_comparator = "="
value_observed = 200

[[record]]
compound = "OC(CNC1CCCCC1)Cn1c2ccc(Cl)cc2c2cc(Cl)ccc21 (stereo not shown)"
scale_unit = "µM"
value_comparator = ">"
value_observed = 200

[[record]]
compound = "OCC(CO)(CO)NCC(O)Cn1c2ccc(Cl)cc2c2cc(Cl)ccc21 (stereo not shown)"
scale_unit = "µM"
value_comparator = "="
value_observed = 100

